Hey, just so you know, these numbers are from patent US9375010B2.

Entries and their chromatographic logP
- test summary: log P by HPLC on reversed phase columns (EEC directive 79/831 Annex V.A8)
- Assay type: physicochemical
- condition parameters: reversed phase HPLC column; method [a]: LC-MS at pH 2.7, 0.1% formic acid in water / acetonitrile gradient; Table 1 compounds
Please state the value as a number alone, without comment.

Cn1oc(=O)nc1/C(=N\OCc1cccc(C#Cc2ccccc2)n1)c1ccccc1 = 3.63
Cn1oc(=O)nc1/C(=N\OCc1csc(C#CC2CC2)n1)c1ccccc1 = 3.13
CC(=NO)Nc1cccc(CO/N=C(/c2ccccc2)c2noc(=O)n2C)n1 = 1.86

// next item, chromatographic logP requested
Need chromatographic logP, item CC(=NOCC1CC1)Nc1cccc(CO/N=C(/c2ccccc2)c2noc(=O)n2C)n1 3.39
